Data provenance is patent US8865716B2.

# System: Aβ42
# Test details: Aβ42 production in H4 neuroglioma cells stably expressing human APP695 (Meso Scale Discovery electrochemiluminescence assay)
# Type: cell-based
# Condition parameters: higher ratio = more specific inhibition of Aβ42 over Aβ total
Parameter: Ratio Aβ(total)/Aβ42 (Aβ total IC50/Aβ42 IC50)
Answers are plain numbers.

Known Ratio Aβ(total)/Aβ42 (Aβ total IC50/Aβ42 IC50) results, listed for orientation:
Molecule | Data value
COCCN1c2nc(Nc3ccc(-n4cnc(C)c4)c(OC)c3)nc(CC(C)C)c2N(C)C(=O)C12CCOC2 (centres unmarked) [Example 30] | 96
COc1cc(Nc2ncc3c(n2)N(C)C2(CC2)C(=O)N3C2COC2)ccc1-n1cnc(C)c1 [Example 47] | 98
COc1cc(Nc2ncc3c(n2)NC2(CCOC2)C(=O)N3CCC(C)C)ccc1-n1cnc(C)c1 (centres unmarked) [Example 29] | 39
COc1cc(Nc2ncc3c(n2)N(C)C2(CC4CCC2C4)C(=O)N3C)cnc1-n1cnc(C)c1 (centres unmarked) [Example 49] | 69

Look up and report measured Ratio Aβ(total)/Aβ42 (Aβ total IC50/Aβ42 IC50) for this entry: Cc1ncc(-c2ccc(Nc3ncc4c(n3)N(C)C3(CCc5ccccc5C3)C(=O)N4C)cn2)o1 (centres unmarked) [Example 37] 29

====

Exercise: state measured Ratio Aβ(total)/Aβ42 (Aβ total IC50/Aβ42 IC50) for each of the compounds provided.
# System: Aβ42
# Test details: Aβ42 production in H4 neuroglioma cells stably expressing human APP695 (Meso Scale Discovery electrochemiluminescence assay)
# Type: cell-based
# Condition parameters: higher ratio = more specific inhibition of Aβ42 over Aβ total
One number for each entry.

Give measured Ratio Aβ(total)/Aβ42 (Aβ total IC50/Aβ42 IC50) for every item shown.
1. COc1cc(Nc2ncc3c(n2)N(C)C2(CCOC2)C(=O)N3C(C)c2ccccn2)ccc1-n1cnc(C)c1 (stereo not shown) [Example 37k]
2. CCCN1C(=O)C2(CCOCC2)N(C)c2nc(Nc3ccc(-n4cnc(C)c4)c(OC)c3)ncc21 [Example 17]
3. COc1cc(Nc2ncc3c(n2)N(C)C2(CCOC2)C(=O)N3C2CC2)ccc1-n1cnc(C)c1 (stereo not shown) [Example 37g]

[88, 65, 58]

====

# System: Aβ42
# Test details: Aβ42 production in H4 neuroglioma cells stably expressing human APP695 (Meso Scale Discovery electrochemiluminescence assay)
# Format: cell-based
# Condition parameters: higher ratio = more specific inhibition of Aβ42 over Aβ total
# Experimental: Cells were plated out to near confluency. The compounds to be tested were received as 10 mM stocks in 100% DMSO. […] Aβ42 as well as Aβ total levels were then measured post-incubation from the supernatant of the cells. Aβ42 levels were determined using a specific electrochemiluminescence assay provided by Meso Scale Discovery (Catalog #L21CA-1) according to the manufacturer's protocol. […]
Parameter: Ratio Aβ(total)/Aβ42 (Aβ total IC50/Aβ42 IC50)
One number for each entry.

Provide Ratio Aβ(total)/Aβ42 (Aβ total IC50/Aβ42 IC50) values for the following items, in order.
1. COCCN1C(=O)C2(CCOC2)N(C)c2nc(Nc3ccc(-n4cnc(C)c4)c(OC)c3)ncc21 (stereo not shown)
2. COc1cc(Nc2ncc3c(n2)N(C)C2(CCOC2)C(=O)N3)ccc1-n1cnc(C)c1 (stereo not shown)
3. COc1cc(Nc2ncc3c(n2)N(C)C2(CC2)C(=O)N3CC(F)(F)F)ccc1-n1cnc(C)c1
4. COc1cc(Nc2ncc3c(n2)N(C)C2(CCCOCC2)C(=O)N3C)ccc1-n1cnc(C)c1 (stereo not shown)

88
46
50
51

Please supply Ratio Aβ(total)/Aβ42 (Aβ total IC50/Aβ42 IC50) for each of the following items, keeping them in order.
1. COc1cc(Nc2ncc3c(n2)N(C)C2(CCOCC2)C(=O)N3C2CC2)ccc1-n1cnc(C)c1 [Example 37b]
2. COCCN1C(=O)C2(CCOCC2)N(C)c2nc(Nc3ccc(-n4cnc(C)c4)c(OC)c3)ncc21
3. CCc1nc(Nc2ccc(-n3cnc(C)c3)c(C#N)c2)nc2c1N(C)C(=O)C1(CCOC1)N2C (stereo not shown)
4. COc1cc(Nc2ncc3c(n2)N(C)C2(CCOC2)C(=O)N3CC(F)F)ccc1-n1cnc(C)c1 (stereo not shown) [Example 37h]

47
26
180
85
